target: PDE5A1 (phosphodiesterase type 5) (Homo sapiens)
Assay readout: IC50 (nM)
Kindly provide the numeric value in nM only, without the unit symbol.

stdin: Value lookup for IC50; key = CCCn1nnc2c(OC)nc(-c3cc(S(=O)(=O)N4CCN(C)CC4)ccc3OC)nc21
stdout: 632
